B1: LINE1-full (parent)
chain: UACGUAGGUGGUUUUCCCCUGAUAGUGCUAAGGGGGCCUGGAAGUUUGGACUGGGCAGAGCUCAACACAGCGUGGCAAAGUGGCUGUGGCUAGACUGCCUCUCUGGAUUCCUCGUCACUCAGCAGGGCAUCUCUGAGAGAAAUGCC

variants of: B1; assay: self-cleavage, relative activity (ratio to wild type); higher = more cleavage; in vitro, sequencing; the parent is a self-cleaving ribozyme
metric: self-cleavage
Would you mind answering with just the numeric figure?

| biopolymerSequence | self-cleavage |
| --- | --- |
| UACGUAGGUGGUUUUCCCCGGAUAGUGCUAAGGGGGCCUGGAAGUUUGGACUGGGCAGAGCUCAACACAGCGUGGCAAAGUGGCUGUGGCUAGACUGCCUCUCUGGAUUCCUCGUCACUCAGCAGGGCAUCUCUAAGAGAAAUGCC [U20G G135A] | 0.98 |

Q: // query self-cleavage value for entry UACGUAUGUGGUUUUCCCCUGAUAGUGCUAAGGGGGCCUGGAAGUUUGGACUGGGCAGAGCUCAUCACAGCGUGGCAAAGUGGCUGUGGCUAGACUGCCUCUCUGGAUUCCUCGUCACUCAGCAGGGCAUCUCUGAGAGAAAUGCC [G7U A65U]
Result: 0.17

Q: Reported self-cleavage for UACGUAGGUGGUUUUCCCCUUAUAGUGCUAAGGGGGCCUGGAAGUUCGGACUGGGCAGAGCUCAACACAGCGUGGCAAAGUGGCUGUGGCUAGACUGCCUCUCUGGAUUCCUCGUCACUCAGCAGGGCAUCUCUGAGAGAAAUGCC [G21U U47C] : what is it?
Result: 0.72

Q: Need self-cleavage, item UACGUAGGUGGUUUUCCCCUGAUAGUGCUAAGGGGGCCUGGAAGUUUGGACUGGGCAGAGCUCAACACAGCUUGGCAAAGUGGCUGUGGCUAGACUGCCUCUCUGGAUUCCUCGUCACUCAGCAGGGCAUCUCUGAGAGAAAUGGC [G72U C145G]
Result: 0.94

Q: So what does the record say about self-cleavage for UACGUAGGUGGUUUUCCCCUGAUAGUGCUAAGGGGGCCUGGAAGUUUGGACUGGGCAGAGCCCAACACAGCGUGGCAAAGUGGCUGUGGCUAGACUGCCUCUCUGGACUCCUCGUCACUCAGCAGGGCAUCUCUGAGAGAAAUGCC [U62C U108C] ?
Result: 0.05

Q: Which self-cleavage is reported for this variant? UACGUAGGUGGUUUUCCCCUGAUAGUGCUAAGGGGGCCUGGAAGUUUGGACUGGGCAGAGCUCAACACAGCGUGGCGAAGUGGCUGUGGCUAGACUGCCUCUCUGGAUUCCUCGUCACUCAGCAGGGCAUCUCCGAGAGAAAUGCC [A77G U134C]
Result: 2.54

Q: Request the reported self-cleavage associated with UACGUAGGUGGUUUUUCCCUGAUAGUGCUAAGGGGGCCUGGAAGUUUGGACUGGGCAGAGCUCAACACAGCGUGGCAAAGUGGCUGUGGCUAGACUGCCUCUCUGGAUUCCUCGUCACUCAGCUGGGCAUCUCUGAGAGAAAUGCC [C16U A124U]
Result: 0.88

Where do the numbers come from? From the RNAGym collection of RNA variant scans (doi:10.7554/elife.90254).
